All figures here come from patent US9694016B2.

// values below are reported IC50
Tested system: b-Raf (V600E) (Homo sapiens (Human), UniProt P15056, V600E)
Sequence (P15056 whole entry V600E): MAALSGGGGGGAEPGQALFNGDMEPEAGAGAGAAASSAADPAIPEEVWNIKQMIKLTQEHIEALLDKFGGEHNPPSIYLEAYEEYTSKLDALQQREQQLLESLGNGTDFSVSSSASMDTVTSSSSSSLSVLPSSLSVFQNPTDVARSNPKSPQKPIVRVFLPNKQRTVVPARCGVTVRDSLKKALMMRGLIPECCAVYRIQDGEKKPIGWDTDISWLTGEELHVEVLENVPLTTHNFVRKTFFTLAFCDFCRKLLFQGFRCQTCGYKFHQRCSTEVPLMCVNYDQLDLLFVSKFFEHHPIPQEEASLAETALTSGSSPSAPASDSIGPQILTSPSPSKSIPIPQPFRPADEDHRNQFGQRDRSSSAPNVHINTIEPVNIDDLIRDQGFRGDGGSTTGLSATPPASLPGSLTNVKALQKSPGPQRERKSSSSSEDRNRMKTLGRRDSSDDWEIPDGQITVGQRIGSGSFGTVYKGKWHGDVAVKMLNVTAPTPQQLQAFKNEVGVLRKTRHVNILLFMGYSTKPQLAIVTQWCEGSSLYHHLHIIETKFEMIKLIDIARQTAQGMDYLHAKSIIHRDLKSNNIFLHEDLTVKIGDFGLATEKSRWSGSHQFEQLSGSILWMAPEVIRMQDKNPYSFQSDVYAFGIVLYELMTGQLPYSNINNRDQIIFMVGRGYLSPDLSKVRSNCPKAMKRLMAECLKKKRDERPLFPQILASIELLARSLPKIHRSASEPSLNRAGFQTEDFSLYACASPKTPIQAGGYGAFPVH
Study conditions: read-out: b-Raf IC-50; Table 2; AlphaScreen, 3 hours reaction
State just the number; it will be interpreted in nM.

Look up IC50 for this compound: Cc1ncc(NC(=O)c2ccnc(C(C)(C)F)c2)cc1-c1cnc(OC2CCOCC2)c(N2C3CCC2COC3)c1 3200

Look up IC50 for this compound: Cc1ccc(NC(=O)c2cnnc(C3(C#N)CC3)c2)cc1-c1cnc(OC2CCOCC2)c(N2CCOCC2)c1 0.6

Look up IC50 for this compound: Cc1ncc(NC(=O)c2cccc(C(F)(F)F)c2)cc1-c1cnc(OC2CN(C)C2)c(N2CCOCC2)c1 24.8

Look up IC50 for this compound: Cc1ncc(NC(=O)c2cccc(C(F)(F)F)c2)cc1-c1cnc(OC2CCCC(O)C2)c(N2CCOCC2)c1 (single isomer, unassigned) 1.7

Look up IC50 for this compound: CCn1cc(-c2cc(NC(=O)c3ccnc(C(C)(C)C#N)c3)ccc2C)cc(N2CCOCC2)c1=O 10.6

----------
Tested system: b-Raf (V600E) (Homo sapiens (Human), UniProt P15056, V600E)
Study conditions: read-out: b-Raf IC-50; AlphaScreen, 60 min pre-incubation, reaction 3 hours at room temperature
// values below are reported pIC50
The value called pIC50 is obtained by taking minus log10 of the concentration in mol/L.

Worked examples follow.
Compound: Cc1ccc(NC(=O)c2ccnc(C(C)(C)C#N)c2)cc1-c1nc2c(c(N3CCOCC3)n1)S(=O)(=O)CC2
pIC50: 8.64

Compound: Cc1ncc(NC(=O)c2cncc(C(F)(F)F)c2)cc1-c1cnc(OC(C)C)c(N2CCOCC2)c1
pIC50: 8.58

Compound: Cc1ncc(NC(=O)c2ccnc(C(C)(C)C#N)c2)cc1-c1cc(N2CCOCC2)nc(N2CCOCC2)c1
pIC50: 7.96

Compound: CCOc1cc(-c2cc(NC(=O)c3ccnc(C(F)F)c3)cnc2C)cc(N2CCOCC2)n1
pIC50: 8.73

Compound: Cc1ncc(NC(=O)c2ccnc(C(C)(C)F)c2)cc1-c1cc(N2CCOCC2)c(S(C)(=O)=O)nn1
pIC50: 8.10

Look up pIC50 for this compound: Cc1ccc(NC(=O)c2cccc(C(F)(F)F)c2)cc1-c1cc(NCC(O)C(F)(F)F)nc(N2CCOCC2)c1 (stereo not drawn) 8.83

Look up pIC50 for this compound: Cc1ccc(NC(=O)c2ccnc(C(F)(F)F)c2)cc1-c1cc(NC[C@@H](C)O)nc(N2CCOCC2)n1 8.63

Look up pIC50 for this compound: Cc1ccc(NC(=O)c2cncc(C(F)(F)F)c2)cc1-c1cc(N2CCOCC2)c(=O)n(C)n1 8.81

Look up pIC50 for this compound: Cc1ncc(NC(=O)c2cncc(C(F)(F)F)c2)cc1-c1cnc(OCC(F)F)c(N2CCOCC2)c1 8.69

----------
Tested system: b-Raf (V600E) (Homo sapiens (Human), UniProt P15056, V600E)
Study conditions: read-out: b-Raf IC-50; AlphaScreen, 60 min pre-incubation, reaction 3 hours at room temperature
Observation type: log10 IC50 (log10 of the value in nM)
In our notation, the value equals log10 of IC50 in nM.

Compound: CNC(=O)c1ncc(-c2cc(NC(=O)c3ccnc(C(C)(F)F)c3)ccc2C)cc1N1CCOCC1
Measured result: 0.42

Compound: Cc1ncc(NC(=O)c2ccnc(C(C)(F)F)c2)cc1-c1cc(NCCO)nc(N2CCOCC2)c1
Measured result: 0.76

Compound: Cc1ccc(NC(=O)c2ccnc(S(C)(=O)=O)c2)cc1-c1cnc(OC(C)C)c(N2CCOCC2)c1
Measured result: -0.33

Look up log10 IC50 for this compound: Cc1ccc(NC(=O)c2cc(C(F)(F)F)ccn2)cc1-c1cc(OCCO)nc(N2CCOCC2)c1 0.05

Look up log10 IC50 for this compound: Cc1ccc(NC(=O)c2cncc(C(F)(F)F)c2)cc1-c1cnc(OC(C)C)c(N2CCOCC2)c1 -0.51

----------
Tested system: b-Raf (V600E) (Homo sapiens (Human), UniProt P15056, V600E)
Study conditions: read-out: b-Raf IC-50; AlphaScreen, 60 min pre-incubation, 3 hours reaction
// values below are reported IC50
Answer format: value, then unit.

Structure notation: Cc1ccc(NC(=O)c2ccnc(C(C)(C)F)c2)cc1-c1cc(N2CCOC(C)(C)C2)c(=O)n(C)n1
IC50: 6.7 nM

Look up IC50 for this compound: COCCOc1nnc(-c2cc(NC(=O)c3ccnc(C(F)F)c3)ccc2C)cc1N1CCOCC1 1.1 nM

Look up IC50 for this compound: Cc1ccc(NC(=O)c2ccnc(C(C)(C)C)c2)cc1-c1cc(N2CCOCC2)n(C)c(=O)c1 2.1 nM

Look up IC50 for this compound: CCNc1nc(-c2cc(NC(=O)c3cnnc(C4CC4)c3)cnc2C)cc(N2CCOCC2)n1 8.5 nM

----------
Tested system: b-Raf (V600E) (Homo sapiens (Human), UniProt P15056, V600E)
Study conditions: read-out: b-Raf IC-50; AlphaScreen, 60 min pre-incubation, 3 hours reaction
Binary label based on IC50 with cut-off 3 nM: below gives 1, not below gives -1.

These recorded examples may help you get a feel for the data.
Structure notation: Cc1ccc(NC(=O)c2ccnc(C(C)(C)C#N)c2)cc1-c1cc(N2CCOCC2)c(OCCO)nn1
Group: 1

Structure notation: CCn1cc(C(=O)Nc2ccc(C)c(-c3cc(N4CCOCC4)c(=O)n(C)n3)c2)cc(C(F)(F)F)c1=O
Group: 1

Structure notation: Cc1ccc(C(=O)Nc2cccc(OC(F)(F)F)c2)cc1-c1cc(N2CCOCC2)c(=O)n(C)c1
Group: -1

Structure notation: Cc1ncc(NC(=O)c2ccnc(C(C)(C)C#N)c2)cc1-c1cc(N2CCOCC2)nc(N2C(=O)OC[C@@H]2C)n1
Group: -1

Problem: For the molecule Cc1ccc(NC(=O)c2ccnc(C(C)(C)C#N)c2)cc1-c1cc(C2CCOCC2)c(=O)n(C)n1 , is IC50 under 3 nM? -1

----------
Tested system: b-Raf (V600E) (Homo sapiens (Human), UniProt P15056, V600E)
Study conditions: read-out: b-Raf IC-50; Table 2; AlphaScreen, 3 hours reaction
Observation type: IC50 (nM)
State just the number; it will be interpreted in nM.

Worked examples follow.
Structure notation: CCOc1ncc(-c2cc(NC(=O)c3cnnc(C(C)(C)C#N)c3)cnc2C)cc1N1CCOC[C@H]1C
Observation type: IC50
Value units: nM
Measured result: 100
//
Structure notation: Cc1ccc(NC(=O)c2ccnc(S(C)(=O)=O)c2)cc1-c1cnc(OC2CCOCC2)c(N2CCOCC2)c1
Observation type: IC50
Value units: nM
Measured result: 0.8
//
Structure notation: CC(F)(F)c1cc(C(=O)Nc2c[nH]c(=O)c(-c3ccnc(N4CCOCC4)c3)c2)ccn1
Observation type: IC50
Value units: nM
Measured result: 25000

Next, consider the following compound.
Look up IC50 for this compound: CCOc1ncc(-c2cc(NC(=O)c3cnnc(C(C)(C)C#N)c3)ccc2C)cc1N1CCOCC1 1.1

----------
Tested system: b-Raf (V600E) (Homo sapiens (Human), UniProt P15056, V600E)
Study conditions: read-out: b-Raf IC-50; Table 2; AlphaScreen, 3 hours reaction
// values below are reported pIC50
The value called pIC50 is obtained by taking minus log10 of the concentration in mol/L.

Compound: COc1ncc(-c2cc(NC(=O)c3cnnc(C(F)(F)F)c3)cnc2Cl)cc1N1CCOCC1 [Example 263]
pIC50: 8.05
--
Compound: CCOc1ncc(-c2cc(C(=O)Nc3ccnc(C(F)(F)F)c3)ccc2C)cc1N1CCOCC1 [Example 306]
pIC50: 8.96
--
Compound: Cc1ncc(NC(=O)c2cccc(C(F)(F)F)c2)cc1-c1cnc(OC2CNC2)c(N2CCOCC2)c1 [Example 325]
pIC50: 6.52
--
Compound: Cc1ncc(NC(=O)c2cccc(C(F)(F)F)c2)cc1-c1cnc(O[C@H]2CCOC2)c(N2CCOCC2)c1 [Example 310]
pIC50: 8.74
--
Compound: Cc1ncc(NC(=O)c2cc(C(F)(F)F)ccn2)cc1-c1cnc(OCCO)c(N2CCOCC2)c1 [Example 301]
pIC50: 8.49
--
Compound: Cn1cc(-c2cc(NC(=O)c3cccc(C(F)F)c3)ccc2Cl)cc(N2CCOCC2)c1=O [Example 412]
pIC50: 9.10
--
Compound: Cc1ncc(NC(=O)c2cccc(C(F)(F)F)c2)cc1-c1cc(N2CCOCC2)nc(N2CCOCC2)c1 [Example 77]
pIC50: 9.22
--
Compound: COc1ncc(-c2cc(NC(=O)c3ccnc(C(C)(C)F)c3)cnc2Cl)cc1N1CCOCC1 [Example 262]
pIC50: 8.47

Look up pIC50 for this compound: Cc1ccc(NC(=O)c2cccc(C(C)(C)S(C)(=O)=O)c2)cc1-c1cc(N2CCOCC2)c(=O)n(C)c1 [Example 351] 7.71

Look up pIC50 for this compound: Cc1ncc(NC(=O)c2cnnc(C3CC3)c2)cc1-c1cnc(N(C)C)c(N2CCOCC2)c1 [Example 271] 9.15

Look up pIC50 for this compound: C=C(C)c1ccc(F)c(NC(=O)c2ccc(C)c(-c3cnc(OCC)c(N4CCOCC4)c3)c2)c1 [Example 256] 8.74

Look up pIC50 for this compound: Cc1ncc(NC(=O)c2ccnc(C(C)(C)F)c2)cc1-c1cnc(F)c(N2CCOCC2)c1 [Example 298] 8.41

Look up pIC50 for this compound: Cc1ccc(C(=O)Nc2cccc(C(F)(F)F)c2)cc1-c1cc(N2CCOCC2)ccn1 [Example 64] 9.05

Look up pIC50 for this compound: Cc1ncc(NC(=O)c2ccnc(C(C)(C)F)c2)cc1-c1cnc(OC2CCOCC2)c(N2CCOCC2)c1 [Example 273] 8.57

Look up pIC50 for this compound: COc1ncc(-c2cc(NC(=O)c3ccnc(C(C)C)c3)cnc2C)cc1N1CCOCC1 [Example 323] 7.89
